I'd appreciate it if you could supply GI50 values for the items below.
System: ACHN
Assay: Growth inhibition of human ACHN cells by NCI standard protocol based method
Assay type: functional
Express it in µM; write the number only.

GET /values?readout=GI50&item= `NC(=O)c1cc(Cl)ccc1NC(=O)COc1ccccc1` 10.7

Item under review: `COc1ccc(NC(=O)COc2ccccc2)c(C(N)=O)c1` . Reported GI50? 2.25

Record request: GI50 value, item `COc1cc(NC(=O)COc2ccccc2)c(C(N)=O)cc1OC` 8.12

Consider the compound `NC(=O)c1cc(I)ccc1NC(=O)COc1ccccc1` and give its measured GI50. 1.32

----------
System: NCI-H23
Test: Growth inhibition of human NCI-H23 cells by NCI standard protocol based method
Assay type: functional
assay.endpoint: GI50 (nM)
Your answer is read as nM, so omit the unit and give the number.

May I ask what GI50 has been recorded for `COc1cc(NC(=O)COc2ccccc2)c(C(N)=O)cc1OC` ? 1320

Reported GI50 for `NC(=O)c1cc(I)ccc1NC(=O)COc1ccccc1` : what is it? 657

Quick one: GI50 of `NC(=O)c1cc(Cl)ccc1NC(=O)COc1ccccc1` ? 5900

Reported GI50 for `COc1ccc(NC(=O)COc2ccccc2)c(C(N)=O)c1` : what is it? 1380

----------
Assign GI50 to each entry below.
Test system: NCI-H460
Experiment: Growth inhibition of human NCI-H460 cells by NCI standard protocol based method
Type: functional
Express the result in nM but write the number alone.

I would be grateful if you could share the reported GI50 for `NC(=O)c1cc(I)ccc1NC(=O)COc1ccccc1` . 425

Give its GI50 value. Item: `COc1cc(NC(=O)COc2ccccc2)c(C(N)=O)cc1OC` 529

What does the data say about its GI50? Entry: `NC(=O)c1cc(Cl)ccc1NC(=O)COc1ccccc1` 3000

Need GI50, item `COc1ccc(NC(=O)COc2ccccc2)c(C(N)=O)c1` 484
